# System: upland rice (Oryza sp., var. Tebonnet, RICE)
# test description: Pre-emerge test, crop safety
# Assay type: in vivo
# protocol conditions: pre-emerge, 63 g ai/ha, 14 days after application, scale 0-100
In this section, each of the compounds is paired with its reported phytotoxicity rating RICE (crop damage).
I'd appreciate a reply containing only the number, no unit.

Solved entries:
# compound, value reported
rows = [
    ("CCCSCC(=O)Nc1c(OC)c(Cl)cc(F)c1-n1c(=O)cc(C(F)(F)F)n(C)c1=O", 10),
    ("COc1c(Br)cc(F)c(-n2c(=O)cc(C(F)(F)F)n(C)c2=O)c1NC(=O)C=Cc1ccccc1 [2-177]", 10),
    ("CCOC(=O)CSCC(=O)Nc1c(OC)c(Cl)cc(F)c1-n1c(=O)cc(C(F)(F)F)n(C)c1=O", 10),
]

Please examine the following record next.
Please look up its phytotoxicity rating RICE (crop damage): COc1c(Cl)cc(F)c(-n2c(=O)cc(C(F)(F)F)n(C)c2=O)c1NC(=O)CSc1ccc2ccccc2c1
10
